B1: Transitional endoplasmic reticulum ATPase, residues 26 to 106; numbered along this chain, P55072 (parent)
chain: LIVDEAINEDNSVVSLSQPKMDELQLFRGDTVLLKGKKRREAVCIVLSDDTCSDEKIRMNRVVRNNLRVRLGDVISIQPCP

- Variants of: B1
- measurement_notes: abundance fitness (aPCA) (normalised: wild type 0, dead -1); higher = more abundant; growth selection in yeast, the domain comes from the species named
- run_conditions: Homo sapiens
// label = yes if abundance fitness is not less than -0.5, otherwise no

Worked examples, 3 variants total:
residue_change	group
K37I	yes
L16N	no
C52M	yes

## Task Given the entry L24S , answer whether its abundance fitness meets or surpasses -0.5.
## Result no

## Task Repeat for the following variant: T51N
## Result yes
